What follows is a collection of AC50 values obtained with UniProt:P08684.
Sequence (P08684 whole entry): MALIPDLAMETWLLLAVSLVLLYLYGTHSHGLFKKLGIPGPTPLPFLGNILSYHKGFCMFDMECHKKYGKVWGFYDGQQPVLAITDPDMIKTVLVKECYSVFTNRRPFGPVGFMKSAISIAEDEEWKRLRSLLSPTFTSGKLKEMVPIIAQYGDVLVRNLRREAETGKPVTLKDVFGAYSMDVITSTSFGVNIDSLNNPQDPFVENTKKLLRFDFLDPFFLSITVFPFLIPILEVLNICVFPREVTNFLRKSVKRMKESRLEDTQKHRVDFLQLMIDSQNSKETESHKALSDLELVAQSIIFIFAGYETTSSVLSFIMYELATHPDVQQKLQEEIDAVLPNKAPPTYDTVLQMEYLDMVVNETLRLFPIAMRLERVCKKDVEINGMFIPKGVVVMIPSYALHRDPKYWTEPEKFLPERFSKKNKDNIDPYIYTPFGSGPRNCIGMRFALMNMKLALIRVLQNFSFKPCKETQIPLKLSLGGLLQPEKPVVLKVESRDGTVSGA

Worked examples, 5 compounds total:
{"columns": ["compound", "AC50"],
 "data": [
  ["CC1CCCC(NC(=O)C2CCN(S(=O)(=O)N3CCOCC3)CC2)C1C (stereo unspecified)", "11.2 µM (inconclusive)"],
  ["Cn1cccc1C(=O)N1CCC[C@@]2(CCN(c3ccccn3)C2)C1", "12.6 µM (inconclusive)"],
  ["CC(=O)Nc1ccc(Sc2ncccc2C(=O)Nc2ccc(F)cc2)cn1", "15.8 µM (inconclusive)"],
  ["COc1ccc(N2CCN(C(S)=Nc3cccc(C)c3)CC2)cc1", "2.24 µM (inconclusive)"],
  ["COCC(=O)N1CCC2(CCN(Cc3ccncc3)CC2)CC1", "15.8 µM (inconclusive)"]
]}

Entry CN1CCN(Cc2nc3cccc4c3c([n+]2[O-])-c2ccccc2-4)CC1 , UniProt:P08684 data, AC50 value: 3.98 µM (inconclusive)

Just for reference, ChEMBL document CHEMBL1201862 is where these values come from.
